tested on: Fer (mouse); test: phosphorylation enrichment, bacterial display (enrichment ratio); higher = better substrate or ligand; peptides without Tyr show the background;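 note: 11-residue human phosphosite peptides and single-mutation variants displayed on the E. coli surface, counted by deep sequencing, each peptide's frequency after selection divided by its frequency in the unselected input library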;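 note: frequency after pTyr selection over input frequency; kinase dosed for 20-30% of maximal phosphorylation in three min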
Met means recorded phosphorylation enrichment is 0.6 or above; Not met means it is below 0.6.

input: Check this sequence for phosphorylation enrichment at or above 0.6: FSNPAYYVLEG [INPPL1_Y986_N982S]
output: Not met

====

target: MERTK (UniProt Q12866); assay: phosphorylation enrichment, bacterial display (enrichment ratio); higher = better substrate or ligand; peptides without Tyr show the background
Sequence (Q12866 whole entry, looked up): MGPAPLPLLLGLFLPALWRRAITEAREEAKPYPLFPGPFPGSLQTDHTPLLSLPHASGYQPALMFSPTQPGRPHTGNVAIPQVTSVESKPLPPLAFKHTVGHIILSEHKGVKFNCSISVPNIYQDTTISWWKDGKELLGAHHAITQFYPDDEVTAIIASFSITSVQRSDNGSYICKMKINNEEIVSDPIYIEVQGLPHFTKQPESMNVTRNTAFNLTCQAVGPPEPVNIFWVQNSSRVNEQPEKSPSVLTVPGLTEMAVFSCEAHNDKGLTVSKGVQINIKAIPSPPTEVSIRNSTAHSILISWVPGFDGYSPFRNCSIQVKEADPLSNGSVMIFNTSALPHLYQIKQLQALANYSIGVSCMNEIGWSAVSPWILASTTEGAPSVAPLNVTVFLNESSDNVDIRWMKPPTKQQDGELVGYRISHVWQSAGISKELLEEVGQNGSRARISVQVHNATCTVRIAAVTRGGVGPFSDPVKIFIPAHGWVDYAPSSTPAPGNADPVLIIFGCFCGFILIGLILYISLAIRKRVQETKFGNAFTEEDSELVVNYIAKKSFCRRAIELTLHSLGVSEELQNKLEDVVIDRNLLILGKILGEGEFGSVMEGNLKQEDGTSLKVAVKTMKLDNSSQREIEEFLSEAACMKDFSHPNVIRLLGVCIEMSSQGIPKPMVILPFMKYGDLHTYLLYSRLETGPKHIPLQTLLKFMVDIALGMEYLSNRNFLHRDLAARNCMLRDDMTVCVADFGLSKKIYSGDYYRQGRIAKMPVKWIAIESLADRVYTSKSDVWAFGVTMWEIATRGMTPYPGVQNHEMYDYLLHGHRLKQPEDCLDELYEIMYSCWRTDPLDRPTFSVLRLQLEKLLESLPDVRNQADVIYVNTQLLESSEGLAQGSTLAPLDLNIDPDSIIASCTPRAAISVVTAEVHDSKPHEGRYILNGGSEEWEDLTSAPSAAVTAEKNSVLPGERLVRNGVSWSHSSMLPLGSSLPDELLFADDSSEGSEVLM
MET means recorded phosphorylation enrichment is 0.5 or above; NOT MET means it is below 0.5.

# count of solved cases: 4
input: Check this sequence for phosphorylation enrichment at or above 0.5: HSLLQYGGSAN [ANK1_Y624_R619H]
output: NOT MET

input: Check this sequence for phosphorylation enrichment at or above 0.5: SLESAYPEVSQ [TTF1_Y357_G360V]
output: NOT MET

input: Check this sequence for phosphorylation enrichment at or above 0.5: EFQLPYFNMVP [BMPR1A_Y457_YF]
output: MET

input: Check this sequence for phosphorylation enrichment at or above 0.5: PHMQTYEVDPN [SDHB_Y61_L65P]
output: MET

More entries:
input: Check this sequence for phosphorylation enrichment at or above 0.5: QQPGPYDRPGA [HNRNPH2_Y210_R206Q]
output: MET

input: Check this sequence for phosphorylation enrichment at or above 0.5: SVVVPCEPPEV [TP53_Y220_Y220C]
output: NOT MET

input: Check this sequence for phosphorylation enrichment at or above 0.5: QEIATYRRLQE [KRT14_Y415_L419Q]
output: MET

input: Check this sequence for phosphorylation enrichment at or above 0.5: MTRDIYETDYY [INSR_Y1185]
output: MET

input: Check this sequence for phosphorylation enrichment at or above 0.5: ALAQKYHGGGG [HBB_Y146_H144Q]
output: NOT MET

input: Check this sequence for phosphorylation enrichment at or above 0.5: REQREYLEQLN [CCDC88B_Y1277_D1279E]
output: MET

input: Check this sequence for phosphorylation enrichment at or above 0.5: VDSNPYSHLMA [UBA5_Y53_R55H]
output: MET

input: Check this sequence for phosphorylation enrichment at or above 0.5: VRFMAYTDETF [F8_Y450]
output: NOT MET

input: Check this sequence for phosphorylation enrichment at or above 0.5: VICRRYLVMQR [IL3RA_Y328]
output: MET

input: Check this sequence for phosphorylation enrichment at or above 0.5: MLEVPYVDHNS [F10_Y384_R387H]
output: NOT MET

input: Check this sequence for phosphorylation enrichment at or above 0.5: EDEGLYMVRVP [MYOM3_Y343]
output: MET

====

system: c-Src; test: phosphorylation enrichment, bacterial display (enrichment ratio); higher = better substrate or ligand; peptides without Tyr show the background
ASSAY METRIC: phosphorylation enrichment
Returns: the value as a bare number; no unit string appended.

input: // phosphorylation enrichment lookup, key: NCFKFYMSDDI [ATRX_Y204_YF]
output: 0.447

input: // phosphorylation enrichment lookup, key: ARTNEYKIIRS [INA_Y87_T92S]
output: 0.407

input: // phosphorylation enrichment lookup, key: IRDENYGEGSS [ACO2_Y665_G661R]
output: 0.481

input: // phosphorylation enrichment lookup, key: WKKKIYEESST [MOCS2_Y170_E168K]
output: 0.448

====

biological target: FGFR3 (UniProt P22607); assay: phosphorylation enrichment, bacterial display (enrichment ratio); higher = better substrate or ligand; peptides without Tyr show the background
Sequence (P22607 whole entry, looked up): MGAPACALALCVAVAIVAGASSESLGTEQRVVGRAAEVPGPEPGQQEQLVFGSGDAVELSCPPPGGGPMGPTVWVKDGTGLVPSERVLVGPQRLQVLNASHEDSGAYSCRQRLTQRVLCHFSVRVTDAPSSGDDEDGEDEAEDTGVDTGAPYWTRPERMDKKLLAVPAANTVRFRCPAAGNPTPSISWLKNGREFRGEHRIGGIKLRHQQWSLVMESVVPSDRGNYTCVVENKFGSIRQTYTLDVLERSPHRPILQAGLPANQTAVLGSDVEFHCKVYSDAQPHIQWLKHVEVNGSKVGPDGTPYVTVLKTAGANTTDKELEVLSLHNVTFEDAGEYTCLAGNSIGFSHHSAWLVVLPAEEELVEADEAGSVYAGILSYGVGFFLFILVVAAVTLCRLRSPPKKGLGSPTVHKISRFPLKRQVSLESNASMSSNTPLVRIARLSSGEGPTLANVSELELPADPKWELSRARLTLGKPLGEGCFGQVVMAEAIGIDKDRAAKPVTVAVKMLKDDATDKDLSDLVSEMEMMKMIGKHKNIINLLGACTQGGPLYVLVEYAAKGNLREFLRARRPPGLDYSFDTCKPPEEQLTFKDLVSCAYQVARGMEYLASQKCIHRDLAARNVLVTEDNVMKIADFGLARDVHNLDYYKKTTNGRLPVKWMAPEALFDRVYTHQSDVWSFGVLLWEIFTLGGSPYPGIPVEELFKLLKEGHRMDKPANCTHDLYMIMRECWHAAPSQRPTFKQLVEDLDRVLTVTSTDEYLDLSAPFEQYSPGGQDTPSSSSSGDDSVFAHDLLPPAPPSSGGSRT
Would you mind classing the entries by phosphorylation enrichment? Ranges: lower band (below 0.6), central band (0.6 to below 0.8), upper band (0.8 or more)

# count of solved cases: 2
input: Where would LDTSQYFRLFN [CPT2_Y217_M214T] land among the classes by reported phosphorylation enrichment?
output: upper band

input: Where would GHNNVYISEHV [GRIN2A_Y1423_D1421N] land among the classes by reported phosphorylation enrichment?
output: lower band

More entries:
input: Where would VCDALYPPGPP land among the classes by reported phosphorylation enrichment?
output: lower band

input: Where would EPVSDYINASI [PTPN11_Y304_N308S] land among the classes by reported phosphorylation enrichment?
output: central band

input: Where would AFPVSYSSSGA [RET_Y687] land among the classes by reported phosphorylation enrichment?
output: lower band

input: Where would EVEPTYVVLFD [ERCC4_Y577_R576T_YF] land among the classes by reported phosphorylation enrichment?
output: upper band

input: Where would PLRADYLIARV [HLCS_Y635] land among the classes by reported phosphorylation enrichment?
output: lower band

====

Each entry below carries its recorded phosphorylation enrichment.
target: EPHB2 (UniProt P29323); experiment: phosphorylation enrichment, bacterial display (enrichment ratio); higher = better substrate or ligand; peptides without Tyr show the background
Sequence (P29323 whole entry, looked up): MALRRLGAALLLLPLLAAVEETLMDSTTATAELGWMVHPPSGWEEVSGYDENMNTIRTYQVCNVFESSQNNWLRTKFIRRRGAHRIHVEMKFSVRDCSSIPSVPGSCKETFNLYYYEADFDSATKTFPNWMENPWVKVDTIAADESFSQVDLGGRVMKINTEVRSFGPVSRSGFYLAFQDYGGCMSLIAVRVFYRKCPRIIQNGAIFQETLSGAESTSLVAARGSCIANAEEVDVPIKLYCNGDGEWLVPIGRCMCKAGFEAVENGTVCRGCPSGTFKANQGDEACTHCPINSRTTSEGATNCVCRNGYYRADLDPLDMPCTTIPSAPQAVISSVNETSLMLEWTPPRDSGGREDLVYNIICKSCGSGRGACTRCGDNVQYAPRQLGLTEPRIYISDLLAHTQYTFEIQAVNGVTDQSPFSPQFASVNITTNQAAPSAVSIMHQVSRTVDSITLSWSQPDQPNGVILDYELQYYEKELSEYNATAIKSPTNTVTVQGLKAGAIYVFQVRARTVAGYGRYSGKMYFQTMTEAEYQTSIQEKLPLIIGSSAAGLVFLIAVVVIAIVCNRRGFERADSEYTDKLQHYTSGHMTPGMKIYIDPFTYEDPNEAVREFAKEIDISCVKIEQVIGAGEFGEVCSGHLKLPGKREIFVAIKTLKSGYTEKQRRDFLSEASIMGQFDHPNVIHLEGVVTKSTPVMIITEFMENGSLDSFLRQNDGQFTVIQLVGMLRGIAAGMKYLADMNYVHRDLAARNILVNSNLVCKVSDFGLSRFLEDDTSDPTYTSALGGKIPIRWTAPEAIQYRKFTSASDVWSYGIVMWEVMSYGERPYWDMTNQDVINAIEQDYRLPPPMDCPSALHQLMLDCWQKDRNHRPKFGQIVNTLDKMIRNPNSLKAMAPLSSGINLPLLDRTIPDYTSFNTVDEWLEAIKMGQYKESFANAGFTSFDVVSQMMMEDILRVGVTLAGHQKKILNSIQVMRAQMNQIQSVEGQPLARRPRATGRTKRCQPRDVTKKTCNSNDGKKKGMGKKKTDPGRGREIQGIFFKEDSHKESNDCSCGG
Returns: the value as a bare number; no unit string appended.

For orientation, consider the following solved cases.
input: // phosphorylation enrichment lookup, key: RGMVMYTSKDR [ZG16B_Y136]
output: 0.597

input: // phosphorylation enrichment lookup, key: GYIISYREEEQ
output: 0.599

More entries:
input: // phosphorylation enrichment lookup, key: AAPAAHDAADT [GAMT_Y27_Y27H]
output: 0.602

input: // phosphorylation enrichment lookup, key: WCSNDHLGMSR [ALAS2_Y199_Y199H]
output: 0.514

input: // phosphorylation enrichment lookup, key: KACKHYLTTRT [ZBTB5_Y118]
output: 0.507

input: // phosphorylation enrichment lookup, key: EATKGHLDDPT [G6PD_Y322_Y322H]
output: 0.488

input: // phosphorylation enrichment lookup, key: FLEKFYKFGSR [NNMT_Y25_YF]
output: 0.6

====

Each entry below carries its recorded phosphorylation enrichment.
molecular target: Fyn (UniProt P06241); assay: phosphorylation enrichment, bacterial display (enrichment ratio); higher = better substrate or ligand; peptides without Tyr show the background
Sequence (P06241 whole entry, looked up): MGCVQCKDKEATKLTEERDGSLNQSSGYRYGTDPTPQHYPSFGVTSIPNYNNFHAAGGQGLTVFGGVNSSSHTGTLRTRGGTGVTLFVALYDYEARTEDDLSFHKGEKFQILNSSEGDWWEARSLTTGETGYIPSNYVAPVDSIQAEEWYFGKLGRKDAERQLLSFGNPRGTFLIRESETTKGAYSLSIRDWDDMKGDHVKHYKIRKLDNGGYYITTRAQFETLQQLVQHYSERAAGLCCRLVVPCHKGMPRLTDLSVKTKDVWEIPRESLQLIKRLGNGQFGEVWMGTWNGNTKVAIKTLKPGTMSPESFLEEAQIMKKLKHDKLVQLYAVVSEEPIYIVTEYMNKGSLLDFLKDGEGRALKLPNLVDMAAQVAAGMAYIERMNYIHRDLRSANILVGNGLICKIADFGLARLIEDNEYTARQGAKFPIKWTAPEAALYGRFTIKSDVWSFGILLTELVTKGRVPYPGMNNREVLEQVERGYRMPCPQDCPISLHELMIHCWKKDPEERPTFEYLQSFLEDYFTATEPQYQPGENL
Returns: the value as a bare number; no unit string appended.

For orientation, consider the following solved cases.
input: // phosphorylation enrichment lookup, key: VGQRPYRPLPE [REEP3_Y170_Q171R]
output: 0.492

input: // phosphorylation enrichment lookup, key: DAICFYRMENA [NPHS2_Y195_YF]
output: 0.726

input: // phosphorylation enrichment lookup, key: RWHEGYRQTPK [CD44_Y412]
output: 0.418

Here is another sequence to look at.
input: // phosphorylation enrichment lookup, key: VTRANYFIRDE [GNAS_Y339_K338N]
output: 0.474

====

target: Fyn (UniProt P06241); test: phosphorylation enrichment, bacterial display (enrichment ratio); higher = better substrate or ligand; peptides without Tyr show the background
ASSAY METRIC: phosphorylation enrichment
Returns: the value as a bare number; no unit string appended.

For orientation, consider the following solved cases.
input: Which phosphorylation enrichment is reported with Fyn (UniProt P06241) for this entry: ANNPLYKEATS [ITGB3_Y773] ?
output: 0.343

input: Which phosphorylation enrichment is reported with Fyn (UniProt P06241) for this entry: SKKSTYRALLD [GANC_Y43_Q44R] ?
output: 0.432

input: Which phosphorylation enrichment is reported with Fyn (UniProt P06241) for this entry: LQLLGYRPVFS [CHST6_Y358_YF] ?
output: 0.451

More entries:
input: Which phosphorylation enrichment is reported with Fyn (UniProt P06241) for this entry: AGLVQYFMEHH [PTPN11_Y80_E76G_YF] ?
output: 0.513

input: Which phosphorylation enrichment is reported with Fyn (UniProt P06241) for this entry: DTQNSYWCATS [TSC1_Y304_G305W] ?
output: 0.485

input: Which phosphorylation enrichment is reported with Fyn (UniProt P06241) for this entry: PFFTSYPPSPD [GDAP2_Y491_YF] ?
output: 0.498

input: Which phosphorylation enrichment is reported with Fyn (UniProt P06241) for this entry: RWHEGYRQTPR [CD44_Y412_K417R] ?
output: 0.299

input: Which phosphorylation enrichment is reported with Fyn (UniProt P06241) for this entry: DRLASYLDKAR [KRT14_Y129_V133A] ?
output: 0.373

input: Which phosphorylation enrichment is reported with Fyn (UniProt P06241) for this entry: HRERPYGGGGG [FUS_Y526_R521H] ?
output: 0.454

input: Which phosphorylation enrichment is reported with Fyn (UniProt P06241) for this entry: IEENGYNTFAS [FGF10_Y161_YF] ?
output: 0.451

input: Which phosphorylation enrichment is reported with Fyn (UniProt P06241) for this entry: GHLYAYDWIRI [BEST1_Y227_S231R] ?
output: 1.84

input: Which phosphorylation enrichment is reported with Fyn (UniProt P06241) for this entry: RLLVVYPWTQG [HBG2_Y36_R41G] ?
output: 0.499

input: Which phosphorylation enrichment is reported with Fyn (UniProt P06241) for this entry: KRISCYEASFQ [PFKFB3_Y194_YF] ?
output: 0.452

input: Which phosphorylation enrichment is reported with Fyn (UniProt P06241) for this entry: FSNKLYFQLEQ [PDPR_Y109_YF] ?
output: 0.636

input: Which phosphorylation enrichment is reported with Fyn (UniProt P06241) for this entry: KLKNAYEESLE [MYH7_Y1488] ?
output: 0.429

input: Which phosphorylation enrichment is reported with Fyn (UniProt P06241) for this entry: KLKEKYQKDIA [HMGB1_Y155_E156Q] ?
output: 0.465

input: Which phosphorylation enrichment is reported with Fyn (UniProt P06241) for this entry: MKGDFYRSLAE [YWHAG_Y131_Y133S_YF] ?
output: 0.404

input: Which phosphorylation enrichment is reported with Fyn (UniProt P06241) for this entry: DTQNSYGCATS [TSC1_Y304] ?
output: 0.433

input: Which phosphorylation enrichment is reported with Fyn (UniProt P06241) for this entry: RMSSSYPTGLA [ADM_Y52] ?
output: 0.525

input: Which phosphorylation enrichment is reported with Fyn (UniProt P06241) for this entry: NAMRRHIEEFQ [MNS1_Y244_Y244H] ?
output: 0.367
